System tested: human FGFR2b (Homo sapiens, UniProt P21802)
Sequence (P21802 22-822 isoform P21802-3 limits assumed): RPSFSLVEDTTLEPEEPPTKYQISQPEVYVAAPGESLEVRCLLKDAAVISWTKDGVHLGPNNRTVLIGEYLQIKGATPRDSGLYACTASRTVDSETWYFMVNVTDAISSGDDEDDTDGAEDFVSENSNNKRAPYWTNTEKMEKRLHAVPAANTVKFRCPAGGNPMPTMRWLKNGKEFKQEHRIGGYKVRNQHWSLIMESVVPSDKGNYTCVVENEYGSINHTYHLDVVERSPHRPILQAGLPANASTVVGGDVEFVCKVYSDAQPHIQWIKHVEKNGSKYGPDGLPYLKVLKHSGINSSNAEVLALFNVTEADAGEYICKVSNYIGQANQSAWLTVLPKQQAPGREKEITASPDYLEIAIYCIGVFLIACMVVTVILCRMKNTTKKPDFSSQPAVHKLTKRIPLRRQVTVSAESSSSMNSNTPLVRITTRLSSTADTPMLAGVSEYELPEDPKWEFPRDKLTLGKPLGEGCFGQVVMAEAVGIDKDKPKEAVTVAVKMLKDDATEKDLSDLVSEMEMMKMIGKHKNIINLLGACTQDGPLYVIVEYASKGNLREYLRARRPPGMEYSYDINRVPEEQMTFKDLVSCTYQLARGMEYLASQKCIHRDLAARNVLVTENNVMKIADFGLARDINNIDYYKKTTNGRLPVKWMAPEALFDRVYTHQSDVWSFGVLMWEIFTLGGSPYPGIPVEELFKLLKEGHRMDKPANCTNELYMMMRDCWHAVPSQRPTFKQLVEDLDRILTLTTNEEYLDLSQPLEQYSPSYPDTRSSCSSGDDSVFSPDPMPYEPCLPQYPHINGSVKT
Experiment notes: SPR affinity determination, human FGFR2b (Example 9)
Type: binding
Quantity name: Rmax (RU)
Report the figure in RU without appending any unit label.

**Query** GET /values?readout=Rmax&item= BGAh9179: humanized anti-FGFR2b IgG1 antibody from murine BGAm1371; VH SEQ ID NO: 21, VL SEQ ID NO: 22 (antibody, V domains shown, Synthetic: VH AA; Synthetic: VL AA) VH: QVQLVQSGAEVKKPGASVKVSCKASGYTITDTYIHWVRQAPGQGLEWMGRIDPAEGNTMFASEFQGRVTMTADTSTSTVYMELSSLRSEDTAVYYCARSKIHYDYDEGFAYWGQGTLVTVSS VL: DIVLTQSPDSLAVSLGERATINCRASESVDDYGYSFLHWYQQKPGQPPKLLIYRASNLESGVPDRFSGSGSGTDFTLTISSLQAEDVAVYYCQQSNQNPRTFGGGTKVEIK
**Result** 38.3
